A collection of compounds and their measured half-life
assay-comment: Half life in rat
Assay type: ADME, organism-based
experimental-setup: in vivo
Provide the reading as a plain figure in h.

INSERT INTO assay_data (compound, observed_measurement) VALUES
  ('CCCCCCCCCc1ccc(CN2CC(C(=O)O)C2)cc1', 1.4);

Now look at this entry.
Short answer for CCCCCCCCCc1ccc(CN2CCC(C(=O)O)C2)cc1 (configuration not stated) : half-life was 0.9

---

assay-comment: Volume of distribution at steady state in Beagle dog at 1 mg/kg, po and 0.5 mg/kg, iv
Assay type: ADME, organism-based, Canis lupus familiaris
experimental-setup: in vivo, read-out: Vdss
reported-endpoint: Vd (L/kg)
Provide the reading as a plain figure in L/kg.

INSERT INTO results (structure, observed_measurement) VALUES
  ('Cc1cc(CN2CC(C(=O)O)C2)ccc1OCc1cc(-c2ccccc2)c(C(F)(F)F)s1', 0.9);

Now look at this entry.
Short answer for O=C(O)C1CN(Cc2ccc(OCc3cc(-c4ccccc4)c(C(F)(F)F)s3)cc2)C1 : Vd was 1.6
